# MEASURED_ON: human progelatinase A (GelA) (Homo sapiens, UniProt P08253)
# Sequence (P08253 110-446 limits assumed): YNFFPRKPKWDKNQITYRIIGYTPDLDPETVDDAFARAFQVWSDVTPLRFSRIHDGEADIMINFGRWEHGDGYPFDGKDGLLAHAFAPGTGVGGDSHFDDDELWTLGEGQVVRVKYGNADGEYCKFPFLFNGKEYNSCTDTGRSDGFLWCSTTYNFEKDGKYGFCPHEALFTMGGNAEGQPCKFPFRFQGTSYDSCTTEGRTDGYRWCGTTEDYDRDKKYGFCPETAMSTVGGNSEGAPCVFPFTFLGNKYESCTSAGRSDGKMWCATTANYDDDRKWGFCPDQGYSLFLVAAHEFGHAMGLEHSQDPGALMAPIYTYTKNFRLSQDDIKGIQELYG
# TEST_DETAILS: In vitro MMP inhibition assay (hydrolysis of fluorogenic MCA peptide substrate), gelatinase A
# Format: biochemical
# CONDITION_INFO: Table 1; Ki,app; MCA peptide substrate 10 μM, 37° C., pH 7.5, 2% DMSO; read-out: Gel A
# Experimental: The catalytic and fibronectin-like portion of human progelatinase A (GelA) was expressed as a fusion protein with ubiquitin in E. Coli. Assays were carried out on autocatalytically activated material. […] The assay method was based on the hydrolysis of MCA-Pro-Leu-Gly-Leu-DPA-Ala-Arg-NH2 (American Peptide Co.) at 37° C. […] The fluorescence changes were monitored with a Perkin-Elmer LS-50B fluorimeter using an excitation wavelength of 328 nm and an emission wavelength of 393 nm. […]
MEASURED_PROPERTY: log10 Ki (log10 of the value in nM)
A value of 2 here means Ki of 100 in nM, since values are log10.

[[record]]
molecule = "CC(C)(SCc1nccn1Cc1ccccc1)[C@@H](NS(=O)(=O)c1ccc(Oc2ccc(Br)cc2)cc1)C(=O)O [Example 3b]"
measured_on = "human progelatinase A (GelA) (Homo sapiens, UniProt P08253)"
measured_property = "log10 Ki"
result_number = 0.26

[[record]]
molecule = "CC(C)(SCc1ccccn1)[C@@H](NS(=O)(=O)c1ccc(Oc2ccc(Br)cc2)cc1)C(=O)O [Example 3d]"
measured_on = "human progelatinase A (GelA) (Homo sapiens, UniProt P08253)"
measured_property = "log10 Ki"
result_number = 0.85

[[record]]
molecule = "Cc1cc(CSC(C)(C)[C@@H](NS(=O)(=O)c2ccc(Sc3ccncc3)cc2)C(=O)O)no1 [Example 4c]"
measured_on = "human progelatinase A (GelA) (Homo sapiens, UniProt P08253)"
measured_property = "log10 Ki"
result_number = 2.95


*Q* Consider the molecule CSC(C)(C)[C@@H](NS(=O)(=O)c1ccc(Oc2ccccc2)cc1)C(=O)NO [Example 9a] . State its measured log10 Ki.
*A* -1.16

*Q* Consider the molecule Cn1ccnc1CSC(C)(C)[C@@H](NS(=O)(=O)c1ccc(Oc2ccc(Br)cc2)cc1)C(=O)NO [Example 9n] . State its measured log10 Ki.
*A* -0.96

*Q* Consider the molecule CSC(C)(C)[C@@H](NS(=O)(=O)c1ccc(Oc2ccc(Cl)cc2)cc1)C(=O)O [Example 6b] . State its measured log10 Ki.
*A* 2.33

----------
Each entry below carries its recorded pKi.
# MEASURED_ON: human progelatinase A (GelA) (Homo sapiens, UniProt P08253)
# TEST_DETAILS: In vitro MMP inhibition assay (hydrolysis of fluorogenic MCA peptide substrate), gelatinase A
# Format: biochemical
# CONDITION_INFO: Table 1; Ki,app; MCA peptide substrate 10 μM, 37° C., pH 7.5, 2% DMSO; read-out: Gel A
In plain terms, pKi is the concentration in mol/L turned into minus its base-10 logarithm.

[[record]]
line_notation = "CC(C)(SCc1ccccn1)[C@@H](NS(=O)(=O)c1ccc(Oc2ccc(F)cc2)cc1)C(=O)NO"
measured_property = "pKi"
result_number = 10.51

[[record]]
line_notation = "Cc1ccc(Oc2ccc(S(=O)(=O)N[C@@H](C(=O)O)C(C)(C)SCc3ccccn3)cc2)cc1"
measured_property = "pKi"
result_number = 8.00

[[record]]
line_notation = "Cc1cc(CSC(C)(C)[C@@H](NS(=O)(=O)c2ccc(Oc3ccc(F)cc3)cc2)C(=O)NO)no1"
measured_property = "pKi"
result_number = 10.62


*Q* Consider the compound CC(C)(C)[C@H](NS(=O)(=O)c1ccc(Oc2ccccc2)cc1)C(=O)NO . State its measured pKi.
*A* 10.04

*Q* Consider the compound CC(C)(SCCC(N)=O)[C@@H](NS(=O)(=O)c1ccc(Oc2ccc(F)cc2)cc1)C(=O)O . State its measured pKi.
*A* 6.48

*Q* Consider the compound CC(C)(SCc1ccccn1)[C@@H](NS(=O)(=O)c1ccc(Oc2ccc(F)cc2)cc1)C(=O)O . State its measured pKi.
*A* 7.36

*Q* Consider the compound CC(C)(SCc1nccn1Cc1ccccc1)[C@@H](NS(=O)(=O)c1ccc(Oc2ccc(F)cc2)cc1)C(=O)O . State its measured pKi.
*A* 7.96

----------
Each entry below carries its recorded pKi.
# MEASURED_ON: human stromelysin (Sln) (Homo sapiens)
# Sequence (P08254 100-272 limits assumed): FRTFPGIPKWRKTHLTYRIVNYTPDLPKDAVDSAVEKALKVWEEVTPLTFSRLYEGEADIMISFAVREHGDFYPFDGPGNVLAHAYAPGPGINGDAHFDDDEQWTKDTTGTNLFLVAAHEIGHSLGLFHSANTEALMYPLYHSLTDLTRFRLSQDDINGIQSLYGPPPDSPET
# TEST_DETAILS: In vitro MMP inhibition assay (hydrolysis of fluorogenic MCA peptide substrate), stromelysin
# Assay type: biochemical
# CONDITION_INFO: Table 2, comparative example; read-out: STROMELYSIN Ki
In plain terms, pKi is the concentration in mol/L turned into minus its base-10 logarithm.

*Q* Consider the compound Cc1ccc(S(=O)(=O)NCC(=O)NO)cc1 [Compound 13, reference compound] . State its measured pKi.
*A* 5.47

*Q* Consider the compound CC(C)(C)C(NS(=O)(=O)c1ccc(Oc2ccc(Cl)cc2)cc1)C(=O)NO (stereo in doubt) [Example 9m] . State its measured pKi.
*A* 9.00

----------
# MEASURED_ON: human progelatinase A (GelA) (Homo sapiens)
# TEST_DETAILS: In vitro MMP inhibition assay (hydrolysis of fluorogenic MCA peptide substrate), gelatinase A
# Type: biochemical
# CONDITION_INFO: Table 2, comparative example; gelatinase A; read-out: GELATINASE Kj
Each entry below carries its recorded pKi.
In plain terms, pKi is the concentration in mol/L turned into minus its base-10 logarithm.

[[record]]
compound = "CC(C)(C)C(NS(=O)(=O)c1ccc(Oc2ccc(Cl)cc2)cc1)C(=O)NO (stereo in doubt)"
result_number = 10.05


Consider now this further compound.
*Q* Consider the compound Cc1ccc(S(=O)(=O)NCC(=O)NO)cc1 [Compound 13, reference compound] . State its measured pKi.
*A* 5.46

----------
# MEASURED_ON: human stromelysin (Sln) (Homo sapiens)
# TEST_DETAILS: In vitro MMP inhibition assay (hydrolysis of fluorogenic MCA peptide substrate), stromelysin
# Format: biochemical
# CONDITION_INFO: Table 1; Ki,app; MCA peptide substrate 10 μM, 37° C., pH 7.5, 2% DMSO; read-out: Sin Ki
MEASURED_PROPERTY: Ki (µM)
Provide only the numeric value, understood in µM.

[[record]]
compound = "CC(C)(SCc1ccccn1)[C@@H](NS(=O)(=O)c1ccc(Oc2ccc(I)cc2)cc1)C(=O)O [Example 3i]"
measured_on = "human stromelysin (Sln) (Homo sapiens)"
result_number = 1.18

[[record]]
compound = "CC(C)(C)[C@@H](NS(=O)(=O)c1ccc(Oc2ccccn2)cc1)C(=O)O [Example 4d]"
measured_on = "human stromelysin (Sln) (Homo sapiens)"
result_number = 274

[[record]]
compound = "CSC(C)(C)[C@@H](NS(=O)(=O)c1ccc(Oc2ccc(Cl)cc2)cc1)C(=O)NO [Example 9b]"
measured_on = "human stromelysin (Sln) (Homo sapiens)"
result_number = 0.0015


Consider now this further compound.
*Q* Consider the compound CC(C)(SCCC(N)=O)[C@@H](NS(=O)(=O)c1ccc(Oc2ccc(F)cc2)cc1)C(=O)O [Example 8b] . State its measured Ki.
*A* 5.7

----------
Each entry below carries its recorded pKi.
# MEASURED_ON: Human matrilysin (Matr) (Homo sapiens)
# Sequence (P09237 95-267): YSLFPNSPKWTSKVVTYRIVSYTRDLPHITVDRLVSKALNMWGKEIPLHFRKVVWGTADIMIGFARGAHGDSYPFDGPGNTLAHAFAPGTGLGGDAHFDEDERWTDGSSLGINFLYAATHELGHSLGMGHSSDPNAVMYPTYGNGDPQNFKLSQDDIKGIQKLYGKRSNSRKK
In plain terms, pKi is the concentration in mol/L turned into minus its base-10 logarithm.

[[record]]
compound = "CC(C)(C)C(NS(=O)(=O)c1ccc(Oc2ccc(Cl)cc2)cc1)C(=O)NO (stereo in doubt) [Example 9m]"
result_number = 7.03


*Q* Print Human matrilysin (Matr) (Homo sapiens) pKi for CC(C)(SCc1ccccc1)[C@@H](NS(=O)(=O)c1ccc(Oc2ccccc2)cc1)C(=O)NO [Example 9i] .
*A* 7.59

*Q* Print Human matrilysin (Matr) (Homo sapiens) pKi for CC(C)(C)C(NS(=O)(=O)c1ccc(Oc2ccc(F)cc2)cc1)C(=O)NO (stereo in doubt) [Example 9l] .
*A* 6.92

*Q* Print Human matrilysin (Matr) (Homo sapiens) pKi for CC(C)(C)[C@H](NS(=O)(=O)c1ccc(Oc2ccccn2)cc1)C(=O)NO [Example 10c] .
*A* 5.64

----------
# MEASURED_ON: UniProt P08254
# TEST_DETAILS: In vitro MMP inhibition assay (hydrolysis of fluorogenic MCA peptide substrate), stromelysin
# Format: biochemical
# CONDITION_INFO: Table 1; Ki,app; MCA peptide substrate 10 μM, 37° C., pH 7.5, 2% DMSO; read-out: Sin Ki
MEASURED_PROPERTY: pKi
In plain terms, pKi is the concentration in mol/L turned into minus its base-10 logarithm.

Known results for compounds:
[[record]]
line_notation = "CC(C)(SCc1ccccn1)[C@@H](NS(=O)(=O)c1ccc(Oc2ccc(-c3ccoc3)cc2)cc1)C(=O)O"
result_number = 6.17

[[record]]
line_notation = "CC(C)(SCC(=O)O)[C@@H](NS(=O)(=O)c1ccc(Oc2ccc(F)cc2)cc1)C(=O)O"
result_number = 4.56


Consider now this further compound.
*Q* Print UniProt P08254 pKi for CC(C)(SCc1ccccc1)[C@@H](NS(=O)(=O)c1ccc(Oc2ccncc2)cc1)C(=O)O .
*A* 5.11

Data provenance is patent US5985900A.
